tgt: Perforin-1 (Homo sapiens)
experimental_details: Inhibition of Perforin-1 in human Jurkat cells at 20 uM incubated for 4 hrs relative to control
Assay type: cell-based
Here the recorded inhibition is given for each entry.

- structure_smiles: "Cc1cc2c(c(=S)[nH]1)C(=O)O/C2=C\\c1cc2ccccc2s1"
  tgt: "Perforin-1 (Homo sapiens)"
  inhibition / %: 63
- structure_smiles: "Cc1cc2c(c(=S)[nH]1)C(=O)O/C2=C\\c1ccc(C)o1"
  tgt: "Perforin-1 (Homo sapiens)"
  inhibition / %: 100
- structure_smiles: "O=C1NC(=S)N/C1=C/c1ccc(-c2ccc3c(c2)CCNC3=O)s1"
  tgt: "Perforin-1 (Homo sapiens)"
  inhibition / %: 98
- structure_smiles: "CNC(=O)c1ccc(-c2c(C#N)c(N)n3c(nc4ccccc43)c2C#N)cc1"
  tgt: "Perforin-1 (Homo sapiens)"
  inhibition / %: 91
- structure_smiles: "O=C1NC(=S)N/C1=C/c1ccc(-c2ccc3c(c2)COC3=O)o1"
  tgt: "Perforin-1 (Homo sapiens)"
  inhibition / %: 99
- structure_smiles: "NC(=O)c1ccc(-c2ccc(-c3ccc4c(c3)COC4=O)s2)cc1"
  tgt: "Perforin-1 (Homo sapiens)"
  inhibition / %: 52
